# System: SARS-CoV-2
# experimental_protocol: Checkerboard synergy study with remdesivir (ZIP model, synergyfinder)
# Type: cell-based
# assay_context: Table 1; ZIP model, δ>10 synergy, δ<−10 antagonism, between additive
Counter-ions that a name gives are not always drawn.
Strictly below -0.8 in Synergy score with remdesivir (δ): rule met. Otherwise: rule not met.

                                   compound      system  category_label
0  COC(=O)C1=C(C)NC(C)=C(C(=O)OC)C1c1cc([N+](=O)[O-])ccc1OCCCCNC[C@H](O)COc1ccccc1  SARS-CoV-2    rule not met
1  C=CC(=O)Nc1cc(Nc2nccc(-c3cn(C)c4ccccc34)n2)c(OC)cc1N(C)CCN(C)C  SARS-CoV-2    rule not met
2  CCN1CCC(c2cc(C)c3nc(-c4cc5c(C)nc(C)cn5n4)cc(=O)n3c2)CC1  SARS-CoV-2    rule not met
3  Cc1c(O)cccc1C(=O)N[C@@H](CSc1ccccc1)[C@H](O)CN1C[C@H]2CCCC[C@H]2C[C@H]1C(=O)NC(C)(C)C [nelfinavir mesylate]  SARS-CoV-2        rule met
4  Nc1cc(OCC2CC2)c(C(=O)NC2CN3CCC2CC3)cc1Cl (centres unmarked) [Pancopride]  SARS-CoV-2    rule not met
5  NC1(c2ccc(-c3nc4ccn5c(=O)[nH]nc5c4cc3-c3ccccc3)cc2)CCC1  SARS-CoV-2    rule not met
6  CC(C)(C)Cn1c(N)nc2ccc(-c3[nH]c(C(C)(C)C)nc3-c3ccc(F)cc3)nc21 [Ralimetinib mesylate/LY2228820, Ralimetinib mesylate]  SARS-CoV-2        rule met
7  COC(=O)C1=C(C)NC(C)=C(C(=O)OCCN2CCN(C(c3ccccc3)c3ccccc3)CC2)C1c1cccc([N+](=O)[O-])c1 (centres unmarked)  SARS-CoV-2        rule met

###

# System: SARS-CoV-2
# experimental_protocol: microbe, parasite or virus in culture
# assay_context: Severe acute respiratory syndrome coronavirus 2, HeLa-ACE2, read-out: HeLa-ACE2 CoV-2 EC50 [μM], Table 4; aggregated data, Geomean, n = 3
Strictly below 3 µM in EC50: 1 (yes). Otherwise: 0 (no).

compound	category_label
Sc1ncnc2nc[nH]c12	0 (no)
C#C[C@]1(O)CC[C@H]2[C@@H]3CCc4cc(OS(=O)(=O)C(C)C)ccc4[C@H]3CC[C@@]21C [ethinyl estradiol sulfonate]	0 (no)
CCCCCCCCCCCCCC(=O)O[C@@H]1[C@@H](C)[C@@]2(O)[C@@H](C=C(CO)C[C@]3(O)C(=O)C(C)=C[C@@H]23)[C@@H]2C(C)(C)[C@]12OC(C)=O [Phorbol 12-myristate 13-acetate]	1 (yes)
N=C(N)c1ccc2cc(OC(=O)c3ccc(CNC(=O)CCCC(=O)O)o3)ccc2c1	0 (no)
CCCCCCC1C(=O)O[C@H](C)[C@H](NC(=O)c2cccc(NC=O)c2O)C(=O)O[C@@H](C)[C@@H]1OC(=O)CC(C)C (stereo partly shown) [Antimycin A]	0 (no)
CC(C)(O)c1ccccc1-c1ccc2[nH]c(/C=C/c3ccc(C(F)(F)F)cc3)nc2c1	0 (no)
Nc1ncnc2c1ccn2[C@@H]1O[C@H](CO)[C@@H](O)[C@H]1O	1 (yes)
CC[C@H]1CN2CCc3cc(OC)c(OC)cc3[C@@H]2C[C@@H]1C[C@H]1NCCc2cc(OC)c(OC)cc21	1 (yes)
O=c1[nH]c(=O)n([C@@H]2O[C@H](CO)[C@@H](O)[C@H]2O)cc1F	0 (no)
CC1OC(O[C@H]2CC[C@@]3(C=O)[C@H](CC[C@@H]4[C@@H]3CC[C@]3(C)[C@@H](C5=CC(=O)OC5)CC[C@]43O)C2)C(O)C(O)C1O (stereo partly shown) [Peruvoside (analog)]	1 (yes)
O=C(c1ccccc1)c1cccc(NC(=O)c2ccn3c2CSC3c2cccnc2)c1 (stereo not shown)	0 (no)
CNC(=O)n1ccc2cc(Oc3ccnc(NC(=O)c4ccc(C5CCN(CCO)CC5)cc4)c3)c(OCCOC)cc21	1 (yes)
CC[C@@H]1/C=C/C=C/C[C@H](C)[C@@H](O)[C@](C)(O)C(=O)[C@H](C)[C@@H](O)[C@H](C)C(=O)[C@H](C)[C@@H](O)[C@H](C)/C=C/C(=O)O[C@H]2[C@@H](C)[C@@H](CC1)O[C@@]1(CC[C@@H](C)[C@@H](C[C@H](C)O)O1)[C@@H]2C	0 (no)

###

SARS-CoV-2 measurements of HeLa-ACE2 CC50/CoV-2 EC50, listed per entry.
property_name: HeLa-ACE2 CC50/CoV-2 EC50

>>> print(df.to_string())
                                   compound   value
0  Nc1ncnc2c1nc(Cl)n2[C@@H]1O[C@H](CO)[C@@H](O)[C@H]1O  >12.80
1  CCN1CCC(c2cc(C)c3nc(-c4cc5c(C)nc(C)cn5n4)cc(=O)n3c2)CC1    5.12
2  CN1CCN(CCCN2c3ccccc3Sc3ccc(S(=O)(=O)N(C)C)cc32)CC1    7.29
3  CN1[C@@H]2CC[C@H]1C[C@@H](N1Cc3ccc4ccccc4c3C1=O)C2   >6.67
4  O=c1nc(NO)ccn1[C@@H]1O[C@H](CO)[C@@H](O)[C@H]1O [N-hydroxycytidine]  >18.13
5  CCOc1cc(C(C)(C)C)ccc1C1=N[C@@](C)(c2ccc(Cl)cc2)[C@@](C)(c2ccc(Cl)cc2)N1C(=O)N1CCN(CCCS(C)(=O)=O)CC1   >4.61
6  COc1cc(C[C@H]2c3cc(OC)c(OC)cc3CCN2C)c(Oc2cc3c(cc2OC)-c2c(OC)c(OC)cc4c2[C@H](C3)N(C)CC4)cc1OC  >45.67

###

# Test system: SARS-CoV-2
# experimental_protocol: microbe, parasite or virus in culture
# assay_context: Severe acute respiratory syndrome coronavirus 2, HeLa-ACE2, read-out: SARS CoV-2 EC50 (μM)
Entries and their EC50 values follow.
property_name: EC50 (µM)

                                   compound  value
0  CCCCC1CCc2cc(O)cc3c(CCN4CCN(c5cc(C)ccn5)CC4)c(C)n1c23 (stereo not shown)    2.5
1  COc1ccc2cc1Oc1ccc(cc1)C[C@H]1c3cc(c(OC)cc3CCN1C)Oc1c(OC)c(OC)cc3c1[C@H](C2)N(C)CC3   1.18
2  C=CC(=O)Nc1cc(Nc2nccc(-c3cn(C)c4ccccc34)n2)c(OC)cc1N(C)CCN(C)C  0.962
3  CC(C)Oc1ccc(-c2nc(-c3cccc4c3CC[C@@H]4NCCO)no2)cc1C#N   2.63

###

Entries and their Calu3 SI CC50/CoV-2 EC50 values follow.
# Tested on: SARS-CoV-2
# assay_context: Table 4
Structures can show the parent of a compound that is named as a salt.
property_name: Calu3 SI CC50/CoV-2 EC50

molecule	relation_symbol	value
CC(=O)O[C@H]1C[C@H](O[C@H]2[C@@H](O)C[C@H](O[C@H]3[C@@H](O)C[C@H](O[C@H]4CCC5(C)[C@H](CC[C@@H]6[C@@H]5CCC5(C)[C@@H](C7=CC(=O)OC7)[C@@H](O)CC65O)C4)O[C@@H]3C)O[C@@H]2C)O[C@H](C)[C@H]1O[C@@H]1O[C@H](CO)[C@@H](O)[C@H](O)[C@H]1O (stereo partly shown) [[…]]	=	4.90
O=c1[nH]c(=O)n([C@@H]2O[C@H](CO)[C@@H](O)[C@H]2O)cc1F	=	7.44
Nc1nc2[nH]cnc2c(=S)[nH]1	=	6.45
C#C[C@]1(O)CC[C@H]2[C@@H]3CCc4cc(OS(=O)(=O)C(C)C)ccc4[C@H]3CC[C@@]21C [ethinyl estradiol sulfonate]	=	5.59
COCc1c(C(C)C)nc(C(C)C)c(/C=C/[C@@H](O)C[C@@H](O)CC(=O)O)c1-c1ccc(F)cc1 [cerivastatin (sodium salt)]	>	85
C[C@@H]1C[C@@H]([C@H](O)CC2CC(=O)NC(=O)C2)C(=O)[C@@H](C)C1 [Cycloheximide]	=	12.50
O[C@@H]1CO[C@H]2[C@@H]1OC[C@H]2Oc1nc2nc(-c3ccc(-c4ccccc4)cc3)c(Cl)cc2[nH]1	>	10
CSc1ccc(CN2CCCC(Nc3ccc4[nH]ncc4c3)C2)cc1 (stereo not shown)	>	8.42
C[C@H]1O[C@@H](O[C@H]2[C@@H](O)C[C@@H](O[C@@H]3[C@@H](O)C[C@H](O[C@H]4CC[C@@]5(C)[C@H](CC[C@@H]6[C@@H]5C[C@@H](O)[C@]5(C)[C@@H](C7=CC(=O)OC7)CC[C@]65O)C4)O[C@@H]3C)O[C@@H]2C)C[C@H](O)[C@@H]1O (stereo in doubt)	>	29.80
CN(C)C(C(=O)Nc1ccc2c(=O)[nH]ccc2c1)c1ccsc1 (stereo not shown)	=	5.39
CC(C)(O)c1ccccc1-c1ccc2[nH]c(/C=C/c3ccc(C(F)(F)F)cc3)nc2c1	=	5.50
O=c1[nH]c2ccc(C(F)(F)F)cc2c(-c2cc(Cl)ccc2O)c1CCO	>	5.8
O=C(c1ccccc1)c1cccc(NC(=O)c2ccn3c2CSC3c2cccnc2)c1 (stereo not shown)	=	5.01

meta.source: patent US20230346820A1
